target: DNA topoisomerase II (Homo sapiens, UniProt P11388+Q02880); experiment: In vitro activity against topoisomerase-2 mediated cleavage of supercoiled pBR322 plasmid DNA; assay type: functional
Provide the recorded EC50 for the entries that follow.

Below are worked cases with known answers.
- N#CCC(=O)NN1C(=O)c2c(c3c4cccc(O)c4n(C4OC(CO)C(O)C(O)C4O)c3c3[nH]c4c(O)cccc4c23)C1=O (stereo not drawn): > 50 µM
- O=C(NN1C(=O)c2c(c3c4cccc(O)c4n(C4OC(CO)C(O)C(O)C4O)c3c3[nH]c4c(O)cccc4c23)C1=O)c1ccccn1 (stereo not drawn): > 50 µM

Now look at this one.
Query string: Bench note: what EC50 did CNN1C(=O)c2c(c3c4cccc(O)c4n(C4OC(CO)C(O)C(O)C4O)c3c3[nH]c4c(O)cccc4c23)C1=O (stereo not drawn) show?
Result string: > 50 µM
